Where do these numbers come from? They come from paper PMC4335062.

Molecular target: ATF3 (Homo sapiens)
Construct: made in house
Sequence (P18847 86-149 limits assumed): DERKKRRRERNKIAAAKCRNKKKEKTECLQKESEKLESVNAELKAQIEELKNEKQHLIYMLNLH
Assay: Direct-binding FRET assay
Conditions: 4°C; N-terminal rhodamine design; mean or single
Where no end group is shown, it is not given here.
parameterMeasured: Kd

[[record]]
sequencerecord = "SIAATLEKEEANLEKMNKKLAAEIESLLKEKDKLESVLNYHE [JUN-d1]"
result = "> 1000 nM"


---

Target: BATF2 (Homo sapiens, UniProt Q8N1L9)
Construct: made in house
Sequence (Q8N1L9 17-80 limits assumed): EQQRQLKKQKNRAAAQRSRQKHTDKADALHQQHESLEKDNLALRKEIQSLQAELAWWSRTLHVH
Test: Direct-binding FRET assay
Settings: Kd, 23°C; C-terminal rhodamine design; mean or single
Where no end group is shown, it is not given here.
parameterMeasured: Kd

[[record]]
sequencerecord = "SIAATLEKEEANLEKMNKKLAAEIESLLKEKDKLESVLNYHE [JUN-d1]"
assaytarget = "BATF2 (Homo sapiens, UniProt Q8N1L9)"
result = "> 1000 nM"

